# assay-name: MM1S cell viability effects, profiling panel, calcein-AM fluorescence, 48 h, basal (AID 1165);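 further: viability of MM1S multiple myeloma cells under basal unstimulated conditions; test concentration not given here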
# condition-context: higher = more signal
property-name: z-score
Lab note: write the figure by itself, no unit.

Known results for compounds:
Lab note: measured z-score of C#CCN([C@H](/C=C/C1CC1)[C@@H](O)Cc1ccccc1)[C@@H](Cc1ccccc1)C(=O)OC was -1.2

Lab note: measured z-score of CC(=O)c1ccc(C(O)C2C=CC3C(=O)N(C)C(=O)C3N2NC(=O)OC(C)(C)C)cc1 (centres undefined) was -0.682

New cases:
Lab note: measured z-score of COc1ccc(C#Cc2ccc3c(c2)[C@]2(C(=O)N3)[C@H](C(=O)Nc3nc4ccccc4s3)[C@H]3C(=O)O[C@H](c4ccccc4)[C@H](c4ccccc4)N3[C@@H]2c2ccc(OCCO)cc2)cc1 was -2.63

Lab note: measured z-score of COC(=O)[C@@]1(Cc2ccc(F)cc2)[C@H]2c3cc(C(=O)N(C)C)n(CCN4CCOCC4)c3C[C@H]2CN1C(=O)c1ccccc1 was -1.05

* * *

# assay-name: E. coli DRC41 culture turbidity changes, primary screen, E. coli filamentation inducer project, strain DRC41, OD650, 48 h (AID 1152);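 further: E. coli MC1000 strain DRC41 lacking acrAB efflux pump and sulA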
# condition-context: E. coli DRC41 (acrAB sulA), higher = more signal, called active from +8 up or from −8 down
property-name: z-score
Lab note: write the figure by itself, no unit.

Lab note: measured z-score of CC(c1ccccc1)C(O)C1C=CC2C(=O)N(c3ccccc3)C(=O)C2N1Nc1ccc(C#N)cc1 (stereo not given) was 1.16

Lab note: measured z-score of CN1C(=O)C2C=CC(C(O)c3ccc(-c4ccccc4)s3)N(Nc3ccccc3)C2C1=O (stereo not given) was -1.06

* * *

// reported z-score per item
# assay-name: inhibitors of hydroxyurea-induced Chk1 phosphorylation, primary screen, imaging, HeLa, phospho-Chk1 nuclear intensity (AID 1187); further: test concentration not given here
# condition-context: hydroxyurea-induced phospho-Chk1 immunofluorescence imaging, higher = more signal
Lab note: write the figure by itself, no unit.

Known results for compounds:
Lab note: measured z-score of CCCCN1CC=CC23O[C@@H]4C=CCOC(=O)[C@@H]4[C@H]2C(=O)N(CCO)[C@@H]3C1=O (stereo partly drawn) was -0.424

Lab note: measured z-score of CC(=O)NCCCC[C@@H]1NC(=O)[C@@H]2C[C@H](C(=O)NCCCCCC[N+](C)(C)C)[C@H](c3ccc(O)cc3)N2C1=O was 0.817

Lab note: measured z-score of N#Cc1ccc(C(O)C2C=CC3C(=O)NC(=O)C3N2Nc2ccccn2)cc1 (stereo not drawn) was 0.114

Lab note: measured z-score of COc1ccc([Si](C)(C)[C@H]2[C@H](CCO)O[C@@]3(C(=O)N(Cc4ccccc4)c4ccc(N(C=O)c5ccccc5)cc43)[C@@H]2C)cc1 was 1.49

Lab note: measured z-score of COc1ccc([Si](C)(C)[C@H]2[C@H](CCn3cc([C@H](O)c4ccccc4)nn3)O[C@@]3(C(=O)N(C)c4c(Br)cc(C)cc43)[C@@H]2C)cc1 was -0.0953

Lab note: measured z-score of C=CCC(OC(C)=O)[C@@H]1[C@@H](N(Cc2cc3ccccc3o2)C(=O)c2cccc3ccccc23)c2cc(OCCCO)ccc2N1C(=O)c1ccc2ccccc2c1 (stereo partly drawn) was -0.0311

Lab note: measured z-score of CC=CC(O)C1C=CC2C(=O)N(C)C(=O)C2N1NC(=O)OC(C)(C)C (stereo not drawn) was -0.0345

Now let's try a different one.
Lab note: measured z-score of CCCCC(=C=CC[C@@H](O)c1ccc(OCCO)cc1)C[C@@H](O)c1ccccn1 was 0.744

* * *

# assay-name: CREB reporter modulators under forskolin, primary screen, cell-based, PC12, CRE-LacZ reporter, forskolin-stimulated (AID 1146);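 further: PC12 cells with 6xCRE LacZ reporter stimulated by forskolin 10 µM; beta-galactosidase reporter signal reflecting CREB driven transcription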
# condition-context: luminescence, 4.5 h, higher = more signal, called active from +8 up or from −8 down
Assign class by z-score: not lower than -0.7 means true (1); lower than -0.7 means false (0).

Q) Kindly determine if z-score recorded for COC(=O)C1(CC(C)C)C=C2C(=C(C(C)C)C(=O)C2C)CN1 (stereo not given) is above or exactly -0.7.
A) false (0)

Q) Kindly determine if z-score recorded for CCCC=C(CCC)[C@@H](NC(=O)c1ccco1)c1ccc(C(=O)OC)cc1 is above or exactly -0.7.
A) true (1)

Q) Kindly determine if z-score recorded for O=C1C2C=CC(C(O)c3cccc(O)c3)N(Nc3ccccc3F)C2C(=O)N1c1ccccc1 (stereo not given) is above or exactly -0.7.
A) true (1)

Q) Kindly determine if z-score recorded for CO[C@H]1O[C@H](CO)[C@@H](OC(=O)Nc2ccc(C(F)(F)F)cc2)[C@H](OC(=O)Nc2ccccc2-c2ccccc2)[C@H]1OC(=O)Nc1ccccc1-c1ccccc1 is above or exactly -0.7.
A) false (0)

New cases:
Q) Kindly determine if z-score recorded for CC1CC/C=C\[C@H]2OC34C=CCN(c5ccc(Cl)cc5)C(=O)[C@H]3N(CCCO)C(=O)[C@]4(C)C2C(=O)O1 (stereo not given in full) is above or exactly -0.7.
A) true (1)

* * *

# target: NADPH oxidase 4 (Homo sapiens)
# assay-name: NOX4-dependent H2O2 signal modulators, primary screen, NOX inhibitor project, cell-based, HEK293-NOX4, tetracycline-induced, Amplex Red fluorescence (AID 1160)
# condition-context: 45 min, higher = more signal, called active from +8 up or from −8 down
// reported z-score per item
Lab note: write the figure by itself, no unit.

Known results for compounds:
Summary line: COC(=O)[C@@]1(Cc2ccc(F)cc2)[C@H]2c3cc(C(=O)N(C)C)n(CCO)c3C[C@H]2CN1C(=O)c1ccccc1 , NADPH oxidase 4 (Homo sapiens), reported z-score = 1.68

Summary line: COC(=O)[C@@]1(Cc2ccc(OC)cc2)[C@@H]2[C@@H](CC(=O)[C@H]2CC(=O)C(=O)N2CCCC2)CN1C(=O)c1ccccc1 , NADPH oxidase 4 (Homo sapiens), reported z-score = 0.65

Summary line: C=CCC(OC(C)=O)[C@@H]1[C@@H](N(Cc2ccc(-c3cccc(C(F)(F)F)c3)o2)C(=O)Cc2ccc(F)cc2)c2cc(OCCCO)ccc2N1C(=O)c1ccc2ccccc2n1 (stereo not given in full) , NADPH oxidase 4 (Homo sapiens), reported z-score = 0.919

Summary line: COCCOC(=O)N1C(=O)[C@@]2(c3cc(C#CC4=CCCCC4)ccc31)[C@H](C(=O)N1CCN(c3ncccn3)CC1)[C@H]1C(=O)O[C@H](c3ccccc3)[C@H](c3ccccc3)N1[C@@H]2c1ccccc1OCCO , NADPH oxidase 4 (Homo sapiens), reported z-score = -2.24

Summary line: CC(C)C(=C=CC[C@@H](O)c1ccccc1OCCO)C[C@@H](O)c1cc(Cl)cc(Cl)c1O , NADPH oxidase 4 (Homo sapiens), reported z-score = -1.46

Summary line: O=C1NC(=O)C2C1C=CC(C(O)c1cccc(O)c1)N2Nc1ccc(Cl)cc1Cl (stereo not given) , NADPH oxidase 4 (Homo sapiens), reported z-score = -5.3

Summary line: C#CCN(C/C=C/c1ccccc1)[C@H](CO[Si](C)(C)C(C)(C)C)c1ccccc1 , NADPH oxidase 4 (Homo sapiens), reported z-score = 0.447

Summary line: COC(=O)[C@H](Cc1ccc(O)cc1)N1CC2=CCCC=C[C@@H]2[C@H]1[C@H](O)Cc1ccccc1 , NADPH oxidase 4 (Homo sapiens), reported z-score = -3.8

New cases:
Summary line: CCCCC(=C=CC[C@@H](O)c1ccc(OCCO)cc1)C[C@@H](O)c1ccccn1 , NADPH oxidase 4 (Homo sapiens), reported z-score = -0.351

Summary line: CCC[C@@H]1C=C(C(=O)OCC)[C@H](c2ccccc2)N1S(=O)(=O)c1ccc(C)cc1 , NADPH oxidase 4 (Homo sapiens), reported z-score = -0.646

Summary line: CC(C)C[C@H]1NC(=O)[C@@]23C(=O)N[C@@H](Cc4ccccc4)C2[C@H](C)[C@@]2(C)O[C@H]2C3/C=C/C/C=C\CNC(=O)[C@@H]2CCCN2C1=O (stereo not given in full) , NADPH oxidase 4 (Homo sapiens), reported z-score = 1.29

Summary line: CC(C)CNC(=O)[C@@H]1c2ccccc2C(=O)N(C2Cc3ccccc3C2)[C@H]1c1ccc(CO)cc1 , NADPH oxidase 4 (Homo sapiens), reported z-score = 1.12

Summary line: CC(C)C[C@@H]1NC(=O)[C@@]23C(=O)N[C@@H](Cc4ccccc4)C2[C@H](C)[C@@]2(C)O[C@H]2C3/C=C/C/C=C\CNC(=O)[C@@H](CC(C)C)NC1=O (stereo not given in full) , NADPH oxidase 4 (Homo sapiens), reported z-score = 0.41

Summary line: CCCC=C(CCC)[C@@H](NC(=O)c1ccco1)c1ccc(C(=O)OC)cc1 , NADPH oxidase 4 (Homo sapiens), reported z-score = 1.46

Summary line: O=C1N(Cc2ccccc2)c2ccccc2[C@H]2OC(c3ccc(OCCCO)cc3)=N[C@@]12Cc1ccccc1 , NADPH oxidase 4 (Homo sapiens), reported z-score = -0.641

Reference source for all entries: PubChem BioAssay
